- method description: DPPH radical scavenging assay
- Format: biochemical
- experimental conditions: compound 100 µM, DPPH 60 µM in MeOH, 1 h
measure name: %AA (percentage of antioxidant activity), DPPH (%)

1. O=C(/C=C/c1ccc(O)cc1O)NOCc1ccccc1C(F)(F)F: 59
2. O=C(/C=C/c1ccc(O)c(O)c1)NOCc1cccc(C(F)(F)F)c1: 96
3. O=C(/C=C/c1ccc(O)cc1O)NOCc1cccc(C(F)(F)F)c1: 60
4. O=C(/C=C/c1ccc(O)c(O)c1)NOCc1ccccc1C(F)(F)F: 95

* * *

- target or system: Human Plasma TTR (Homo sapiens, UniProt P02766)
- method description: ANS competitive binding (displacement) assay
- experimental conditions: TTR 8 µM, ANS 16 µM; mean ± SEM of triplicate
- Experimental: The binding of ANS (8-anilino-1-naphthalenesulfonic acid), Sigma-Aldrich (St. Louis, MO, USA) and its displacement by the three selected compounds 2a–c were studied using Human Plasma TTR (Merck Millipore, Molsheim, France) according to the protocol previously described. […] After 10 min, the fluorescent emission spectra (400–540 nm) were recorded exciting at 280 nm using Molecular Devices SpectraMax Gemini XPS plate reader, (San Jose, CA, USA). […]
measure name: IC50

1. O=C(/C=C/c1ccc(O)c(O)c1)NOCc1ccccc1C(F)(F)F: 31.9 µM

These entries and their values trace back to paper PMC10610016.
